- Test system: LXRa homodimer (NR concentration 270 nM)
- EXPERIMENTAL PROTOCOL: PBM binding z-score (relative to random genomic background probes); higher = stronger binding; sequences stand for … in GC…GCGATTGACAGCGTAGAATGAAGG
Note to self: values exactly at -0.06 are criterion met. So PBM binding z-score at or above -0.06 is criterion met, below is criterion not met.

> print(dat)
                     polymer.sequence     category.label
1  TCTCGGAGGACACGAAAGGTCAGAGCCCGACATC      criterion met
2  TAGCCTAGGTCAGATCGGGCCTGTATACGCTATA  criterion not met
3  ACCGAAAGGTCGTGAGGTGAGTATACAGAAAGGC  criterion not met
4  ACAGACAGGTAAGTGAAGGTAACTCAGCTGGACG  criterion not met
5  CAAACTAGGTCTAGAGGTCAAAGTCCGCTTCCCG      criterion met

Is the recorded value of PBM binding z-score equal to or greater than -0.06 for this sequence? "GTTACAGGGTCAGCTAGAGGCCAGAGTATGGAAA" criterion not met

Check the entry "GAACCAAGGTGAATAGGTCGTTGATGAGTAGGCG" : does PBM binding z-score equal or exceed -0.06? criterion not met

Exam item: decide whether the reported PBM binding z-score for "CCGTACGGGTCACTCCAGGTTATAGCATCGGAGT" is at least -0.06. criterion met

Identify whether the reported PBM binding z-score of the following sequence is -0.06 or greater: "ACTAGTTGGTCAGCTGAGGTGACACACAATTCGG" criterion met

Is PBM binding z-score for "TAGCCTAGGTCATTGGGCCAGTCTAGTACGCATC" at or above -0.06? criterion met

###

- Test system: PPARg DBDmut:RXRa IVT, anti-PPARg (DBD mutation: PPARg1 K132A/R137A, NR concentration 270 nM, RXRa partner concentration 90 nM)
- EXPERIMENTAL PROTOCOL: PBM binding z-score (relative to random genomic background probes); higher = stronger binding; sequences stand for … in GC…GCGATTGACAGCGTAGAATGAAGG
// reported PBM binding z-score for each item listed
Field format: numeric only.

Recorded result, "ATACCAAGGTGATCGTGAGGTCGTTGGTACTAAC" , PBM binding z-score: -0.235

So for "CGTCCAAGGCCAGCAGGTCAGTGAAAGCGACGTG" , the logged PBM binding z-score turned out to be -0.768

Form: sequence = "CCTACTGGGCCAAAAAGGTCAATGATGCCGATAA" ; PBM binding z-score = 0.0987

Entry "CCTACTGGGCCAAAGGTCAATGATTCCAATGCTC" , PBM binding z-score reported as 1.6

PBM binding z-score measured on "GCTTACGGGTCAAAGGTTATACCATGAATAGAAT" = 1.82

Per the records, this sequence ( "TTACCAAGGTGAAAGGTCGTTGACGCACGCCTTG" ) has PBM binding z-score equal to 0.591

What the record says about "AGAACGAGGGCAAAGAGTTGATAGCACGGGTGGC" : PBM binding z-score is 0.499

"ACAGACAGGTGAGTGAAGATAACTCAGCTGGACG" has a reported PBM binding z-score of 0.243

Reported PBM binding z-score of "ACTCGGAGGACAAAAGTCAGAGCTACGCCAGTGA" : -1.08

PBM binding z-score measured on "AGAATGAGGTTATTAACATCAGGGAATTGCGGTC" = 0.432

// PBM binding z-score value for "GCTAGTTGGTCAGAAAAAGGTCACACACCGGTCG" : -0.31

Summary for this sequence, "GCAGACAGGTGAAACCCAGGTAACTCAGGGTGGC" : PBM binding z-score is -0.384

Record "CCTCGGAGGACAGAGGGTCAGAGCTGTCCGCTTT" . Reported PBM binding z-score: -1.61

Sample "GCAGACAGGTGAAACGCAGGTCACTCAGGGTGGC" ; PBM binding z-score observed: -0.584

Lookup result for "ACTTCCGGGTCAACGAGGTTATAGCACGCGTATA" ; measured PBM binding z-score: 1.78

The reported PBM binding z-score of the sequence "CCTCGGAGGACAACAGGAGGTCACAGCTGCCAGA" was -1.61

// PBM binding z-score lookup, sequence = "TGAATGAGGATATAAGATCAGGGAACGTTGCAAA" , result: 0.56

Just so you know, measured PBM binding z-score for "CTCGAAAGGTCGGTTGAGGTGAGTACACGGATAA" came out at 0.39

Looking up "CCTGCTAGGTCATGGTAAGCTAATCTACAGTATG" , I see its PBM binding z-score listed as 0.752
